Target: Endothelin receptor type B (Homo sapiens, UniProt P24530)
Sequence (P24530 whole entry): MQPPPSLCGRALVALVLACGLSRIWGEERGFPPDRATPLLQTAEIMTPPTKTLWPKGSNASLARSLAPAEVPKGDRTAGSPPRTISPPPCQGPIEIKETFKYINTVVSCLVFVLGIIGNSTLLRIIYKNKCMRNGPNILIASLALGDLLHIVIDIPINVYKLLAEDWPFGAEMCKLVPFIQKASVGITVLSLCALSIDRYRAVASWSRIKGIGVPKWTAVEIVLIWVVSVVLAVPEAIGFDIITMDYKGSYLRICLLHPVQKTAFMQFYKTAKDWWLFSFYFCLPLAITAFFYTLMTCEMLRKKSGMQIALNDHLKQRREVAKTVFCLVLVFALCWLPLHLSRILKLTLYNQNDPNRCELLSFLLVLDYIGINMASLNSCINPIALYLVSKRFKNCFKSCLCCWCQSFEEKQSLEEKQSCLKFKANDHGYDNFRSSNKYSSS
Assay: Inhibitory concentration against Endothelin B receptor expressed in CHO-K1 cells
Format: cell-based
pIC50: −log10 of the molar value.
Metric name: pIC50

{"Compound": "O=C(O)c1c(-c2ccc3c(c2)OCO3)c2cc(OCc3ccccc3)ccc2n1-c1ccc2c(c1)OCO2", "Experimental value": 4.85}

a: COc1ccc(-c2c(C(=O)O)n(-c3ccc4c(c3)OCO4)c3ccc(OCc4ccccc4)cc23)cc1
b: COc1cc2c(-c3ccc4c(c3)OCO4)c(C(=O)O)n(-c3ccc4c(c3)OCO4)c2cc1OC
Request: Quick one: lower pIC50, a or b ? Response format: the label of the selected entry.
Response: a

* * *

Biological target: Endothelin-1 receptor (Homo sapiens, UniProt P25101)
Sequence (P25101 whole entry): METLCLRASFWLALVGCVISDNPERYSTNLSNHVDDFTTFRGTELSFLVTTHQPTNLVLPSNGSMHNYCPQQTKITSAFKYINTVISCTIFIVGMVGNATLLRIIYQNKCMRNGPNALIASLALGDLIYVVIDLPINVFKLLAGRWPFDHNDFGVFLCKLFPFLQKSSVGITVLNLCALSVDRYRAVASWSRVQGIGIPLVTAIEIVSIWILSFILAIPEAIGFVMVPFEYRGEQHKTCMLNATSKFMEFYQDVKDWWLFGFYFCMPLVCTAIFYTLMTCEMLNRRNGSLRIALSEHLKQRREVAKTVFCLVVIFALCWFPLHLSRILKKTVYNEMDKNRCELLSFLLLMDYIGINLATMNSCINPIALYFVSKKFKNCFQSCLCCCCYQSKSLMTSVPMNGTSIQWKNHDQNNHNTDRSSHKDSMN
Test: Inhibitory concentration to the endothelin A receptor expressed in LtK cells
Type: cell-based
pIC50: −log10 of the molar value.
Metric name: pIC50

# annotated cases, reported pIC50 shown
{"Compound": "COc1ccc2c(c1)c(-c1ccc3c(c1)OCO3)c(C(=O)O)n2-c1ccccc1", "pIC50": 4.92}
{"Compound": "CCCOc1ccc2c(c1)c(-c1ccc3c(c1)OCO3)c(C(=O)O)n2-c1ccc2c(c1)OCO2", "pIC50": 7.37}
{"Compound": "COc1ccc(-c2c(C(=O)O)n(-c3ccc4c(c3)OCO4)c3ccc(OC)cc23)cc1", "pIC50": 5.96}
{"Compound": "COc1ccc(-n2c(C(=O)O)c(-c3ccc4c(c3)OCO4)c3cc(OC)ccc32)cc1", "pIC50": 5.46}
{"Compound": "COc1ccc(-n2c(C(=O)O)c(-c3ccc4c(c3)OCO4)c3ccccc32)cc1", "pIC50": 5.64}
{"Compound": "O=C(O)c1c(-c2ccc3c(c2)OCO3)c2cc(OCc3ccccc3)ccc2n1Cc1ccc2c(c1)OCO2", "pIC50": 6.10}
{"Compound": "COc1cccc(-c2c(C(=O)O)n(-c3ccc4c(c3)OCO4)c3ccc(OC)cc23)c1", "pIC50": 5.26}

P: COc1cc2c(-c3ccc4c(c3)OCO4)c(C(=O)O)n(-c3ccc4c(c3)OCO4)c2cc1OC
Q: O=C(O)c1c(-c2ccc3c(c2)OCO3)c2cc(Cl)ccc2n1-c1ccccc1
Request: Given the two records P and Q , choose the one whose pIC50 value is lower. // output: label of the selected item
Response: Q

* * *

Molecular target: UniProt:P25101
Sequence (P25101 whole entry): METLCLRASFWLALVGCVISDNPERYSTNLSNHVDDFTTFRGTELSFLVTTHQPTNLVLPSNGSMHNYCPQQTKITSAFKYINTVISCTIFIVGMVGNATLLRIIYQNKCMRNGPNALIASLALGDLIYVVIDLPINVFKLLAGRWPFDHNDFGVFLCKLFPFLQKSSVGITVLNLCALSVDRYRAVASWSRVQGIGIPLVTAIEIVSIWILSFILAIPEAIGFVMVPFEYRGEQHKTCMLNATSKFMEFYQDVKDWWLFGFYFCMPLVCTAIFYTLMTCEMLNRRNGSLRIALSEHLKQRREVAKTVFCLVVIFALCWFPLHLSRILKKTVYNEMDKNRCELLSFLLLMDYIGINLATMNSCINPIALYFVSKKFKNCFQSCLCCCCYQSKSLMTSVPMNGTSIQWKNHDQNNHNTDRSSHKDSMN
Test: Inhibitory concentration to the endothelin A receptor expressed in LtK cells
pIC50: −log10 of the molar value.
Metric name: pIC50

{"Compound": "COc1cc2c(-c3ccc4c(c3)OCO4)c(C(=O)O)n(Cc3ccc4c(c3)OCO4)c2cc1OC", "pIC50": 7.22}

1: COc1ccc(-c2c(C(=O)O)n(Cc3ccc4c(c3)OCO4)c3cc(OC)c(OC)cc23)cc1OC
2: COc1ccc2c(c1)c(-c1ccc3c(c1)OCO3)c(C(=O)O)n2-c1ccc2c(c1)OCO2
3: COc1ccc2c(c1)c(-c1ccc(OC)c(OC)c1)c(C(=O)O)n2-c1ccc2c(c1)OCO2
4: COc1ccc(-c2c(C(=O)O)n(-c3ccc4c(c3)OCO4)c3ccc(OCc4ccccc4)cc23)cc1
Request: Number of compounds to sort: 4. Sort criterion: pIC50, ascending. Your task in answering is to list the labels in the requested order.
Response: 4, 3, 2, 1

* * *

Target: UniProtKB P24530
Test: Inhibitory concentration against Endothelin B receptor expressed in CHO-K1 cells
Type: cell-based
pIC50: −log10 of the molar value.
Metric name: pIC50

{"Compound": "O=C(O)c1c(-c2ccc3c(c2)OCO3)c2cc(OCc3ccccc3)ccc2n1Cc1ccc2c(c1)OCO2", "Test system": "UniProtKB P24530", "pIC50": 5.60}
{"Compound": "O=C(O)c1c(-c2ccc3c(c2)OCO3)c2ccccc2n1Cc1ccc2c(c1)OCO2", "Test system": "UniProtKB P24530", "pIC50": 5.48}
{"Compound": "O=C(O)c1c(-c2ccc3c(c2)OCO3)c2cc3c(cc2n1Cc1ccc2c(c1)OCO2)OCO3", "Test system": "UniProtKB P24530", "pIC50": 6.17}
{"Compound": "COc1ccc2c(c1)c(-c1ccc3c(c1)OCO3)c(C(=O)O)n2Cc1ccc2c(c1)OCO2", "Test system": "UniProtKB P24530", "pIC50": 5.62}
{"Compound": "O=C(O)c1c(-c2ccc3c(c2)OCO3)c2ccccc2n1Cc1ccccc1", "Test system": "UniProtKB P24530", "pIC50": 4.84}
{"Compound": "O=C(O)c1c(-c2ccc3c(c2)OCO3)c2ccccc2n1-c1ccc2c(c1)OCO2", "Test system": "UniProtKB P24530", "pIC50": 4.66}

P: COc1ccc2c(c1)c(-c1ccc3c(c1)OCO3)c(C(=O)O)n2-c1ccc2c(c1)OCO2
Q: CCCOc1ccc2c(-c3ccc4c(c3)OCO4)c(C(=O)O)n(Cc3ccc4c(c3)OCO4)c2c1
Request: Which numeric pIC50 is bigger, that of P or that of Q ? Answer by quoting the chosen item's label.
Response: Q

* * *

Target: Endothelin-1 receptor (Homo sapiens, UniProt P25101)
Assay: Inhibitory concentration to the endothelin A receptor expressed in LtK cells
Metric name: IC50 (nM)

{"Compound": "O=C(O)c1c(-c2ccc3c(c2)OCO3)c2cc(OCc3ccccc3)ccc2n1-c1ccc2c(c1)OCO2", "IC50 (nM)": 1300}
{"Compound": "COc1cc2c(-c3ccc4c(c3)OCO4)c(C(=O)O)n(Cc3ccc4c(c3)OCO4)c2cc1OCc1ccccc1", "IC50 (nM)": 30}
{"Compound": "O=C(O)c1c(-c2ccc3c(c2)OCO3)c2ccccc2n1Cc1ccc2c(c1)OCO2", "IC50 (nM)": 1500}

a: COc1ccc(Cn2c(C(=O)O)c(-c3ccc4c(c3)OCO4)c3cc(OCc4ccccc4)ccc32)cc1
b: COc1ccc2c(c1)c(-c1ccc3c(c1)OCO3)c(C(=O)O)n2Cc1ccc2c(c1)OCO2
Request: // which entry has the larger IC50 value, a or b ? # reply format: chosen label
Response: a
(a: 2700 nM, b: 350 nM)
